# assay_details: KB-8-5-11 Cancer Cell Toxicity qHTS against the NCATS CANVASS Library (AID 1347364); note: nearly all actives have a fitted effect of over 75% in size
# experimental_parameters: KB-8-5-11 MDR cells viability, CellTiter-Glo, 72 h; series mostly up to 46.1 µM
Results filed as inconclusive are left out. Activity calls are given as the source filed them. Calls come from the whole dose curve; as a rule, active = well fitted cell-killing curve with a large enough effect; inconclusive = small, poorly fitted or top-dose-only effect; inactive = flat fitted curve, though single readings scatter.
Outcomes: true (active), false (inactive)

INSERT INTO results (compound_string, label) VALUES
  ('C[C@@]12CCC[C@@](C)(C(=O)O)[C@H]1C[C@@H](O)[C@]13C[C@H]4C[C@H](O[C@@]4(C)C1)[C@@H]23', 'false'),
  ('C/C=C/c1cc(OC)c2c(c1)[C@@H](C)[C@H](c1ccc(O)c(OC)c1)O2', 'false'),
  ('CC(=O)[C@@H]1[C@@H](O)C[C@H]2[C@]3(C)CC[C@H]4C(C)(C)CCC[C@]4(CO)[C@H]3C[C@H]3OC(=O)[C@@H]1[C@@]32C', 'false'),
  ('C[C@@]12CCC[C@@](C)(C(=O)O)[C@H]1CC[C@]13C[C@H]4C[C@H](O[C@@]4(C)C1)[C@H]32', 'false'),
  ('CN1CC[C@]2(c3cccc4c3N[C@@H]3N(C)CC[C@]43[C@@]34CCN(C)[C@@H]3Nc3c([C@]56CCN(C)[C@H]5Nc5ccccc56)cccc34)c3ccccc3N[C@H]12', 'true'),
  ('Cc1cc(O)cc2oc(C[C@H](C)O)cc(=O)c12', 'false'),
  ('C/C1=C\CC(=O)/C=C/C=C\c2csc(n2)[C@@H](C)NC(=O)C[C@@](S)([C@@H](C)C(=O)O)CC1', 'false');
